System: HCV 1b genotype
Assay: HCV replicon assay (HCV-neo replicon cells, wild-type)
Format: cell-based, Hepatitis C virus
Settings: Hepatitis C virus, HCV 1b genotype replicon; class symbols; read-out: EC50 Range against HCV 1b
pEC50: −log10 of the molar value.
Listed below: pEC50 values for each entry.

molecule	pEC50
Cn1cc(C(=O)N2CCC[C@H]2C(=O)Nc2ccc(-c3nnc(-c4ccc(NC(=O)[C@@H]5CCCN5C(=O)c5cn(C)c6ccccc56)cc4)o3)cc2)c2ccccc21 [RK-42]	5.00 to 6.00
O=C(Nc1ccc(-c2cnc(-c3ccc(NC(=O)[C@@H]4CCCN4C(=O)CN4C(=O)OC[C@H]4c4ccccc4)cc3)o2)cc1)[C@@H]1CCCN1C(=O)CN1C(=O)OC[C@H]1c1ccccc1 [JR-21]	5.00 to 6.00
COc1ccc2[nH]cc(CC(=O)N3CCC[C@H]3C(=O)Nc3ccc(-c4cnc(-c5ccc(NC(=O)[C@@H]6CCCN6C(=O)Cc6c[nH]c7ccc(OC)cc67)cc5)o4)cc3)c2c1 [XY-11]	6.00 to 7.00
